Origin of values: ChEMBL document CHEMBL1147099

Test system: Neisseria gonorrhoeae
Test: Antibacterial activity against Neisseria gonorrhoeae after 24 hrs by broth microdilution method
Format: functional
OBSERVABLE: MIC50 (µg/mL)

{"columns": ["RECORD_SMILES", "VALUE_UNITS", "VALUE_REPORTED"],
 "data": [
  ["O=C(O)c1cn(C2CC2)c2cc(N3CCNCC3)c(F)cc2c1=O", "µg/mL", 0.004],
  ["CO/N=C(\\C(=O)N[C@@H]1C(=O)N2C(C(=O)O)=C(CSc3nc(=O)c(O)nn3C)CS[C@H]12)c1csc(N)n1", "µg/mL", 0.004],
  ["CN(C)[C@@H]1C(O)=C(C(N)=O)C(=O)[C@@]2(O)C(O)=C3C(=O)c4c(O)cccc4[C@@](C)(O)[C@H]3C[C@@H]12", "µg/mL", 0.25],
  ["CC[C@H]1OC(=O)[C@H](C)[C@@H](O[C@H]2C[C@@](C)(OC)[C@@H](O)[C@H](C)O2)[C@H](C)[C@@H](O[C@@H]2O[C@H](C)C[C@H](N(C)C)[C@H]2O)[C@](C)(O)C[C@@H](C)CN(C)[C@H](C)[C@@H](O)[C@]1(C)O", "µg/mL", 0.06]
]}

----------
Test system: Pseudomonas aeruginosa
Experiment: Antibacterial activity against Pseudomonas aeruginosa after 24 hrs by broth microdilution method
Assay type: functional
Catalogue of MIC90 readings, one per entry.
OBSERVABLE: MIC90

{"columns": ["COMPOUND", "TARGET", "OBSERVABLE", "VALUE_REPORTED"],
 "data": [
  ["CO/N=C(\\C(=O)N[C@@H]1C(=O)N2C(C(=O)O)=C(CSc3nc(=O)c(O)nn3C)CS[C@H]12)c1csc(N)n1 [CEFTRIAXONE]", "Pseudomonas aeruginosa", "MIC90", "> 64 µg/mL"],
  ["CC(C)(O/N=C(\\C(=O)N[C@@H]1C(=O)N2C(C(=O)[O-])=C(C[n+]3ccccc3)CS[C@H]12)c1csc(N)n1)C(=O)O [CEFTAZIDIME]", "Pseudomonas aeruginosa", "MIC90", "32 µg/mL"],
  ["CC1(C)S[C@@H]2[C@H](NC(=O)[C@H](N)c3ccccc3)C(=O)N2[C@H]1C(=O)O [AMPICILLIN]", "Pseudomonas aeruginosa", "MIC90", "> 32 µg/mL"],
  ["C[C@H]1COc2c(N3CCN(C)CC3)c(F)cc3c(=O)c(C(=O)O)cn1c23.C[C@H]1COc2c(N3CCN(C)CC3)c(F)cc3c(=O)c(C(=O)O)cn1c23.O [LEVOFLOXACIN]", "Pseudomonas aeruginosa", "MIC90", "> 8 µg/mL"]
]}

----------
Catalogue of MIC90 readings, one per entry.
System: Streptococcus viridans
Assay: Antibacterial activity against Streptococcus viridans after 24 hrs by broth microdilution method
Format: functional

{"columns": ["COMPOUND", "MIC90 (mg/L)"],
 "data": [
  ["C[C@H]1COc2c(N3CCN(C)CC3)c(F)cc3c(=O)c(C(=O)O)cn1c23.C[C@H]1COc2c(N3CCN(C)CC3)c(F)cc3c(=O)c(C(=O)O)cn1c23.O", 1],
  ["CC(=O)NCC1CN(c2ccc(N3CCOCC3)c(F)c2)C(=O)O1 (single isomer, unassigned)", 1],
  ["CO/N=C(\\C(=O)N[C@@H]1C(=O)N2C(C(=O)O)=C(CSc3nc(=O)c(O)nn3C)CS[C@H]12)c1csc(N)n1", 1],
  ["CN[C@H](CC(C)C)C(=O)N[C@H]1C(=O)N[C@@H](CC(N)=O)C(=O)N[C@H]2C(=O)N[C@H]3C(=O)N[C@H](C(=O)N[C@H](C(=O)O)c4cc(O)cc(O)c4-c4cc3ccc4O)[C@H](O)c3ccc(c(Cl)c3)Oc3cc2cc(c3O[C@@H]2O[C@H](CO)[C@@H](O)[C@H](O)[C@H]2O[C@H]2C[C@](C)(N)[C@H](O)[C@H](C)O2)Oc2ccc(cc2Cl)[C@H]1O", 1],
  ["CC[C@H]1OC(=O)[C@H](C)[C@@H](O[C@H]2C[C@@](C)(OC)[C@@H](O)[C@H](C)O2)[C@H](C)[C@@H](O[C@@H]2O[C@H](C)C[C@H](N(C)C)[C@H]2O)[C@](C)(O)C[C@@H](C)CN(C)[C@H](C)[C@@H](O)[C@]1(C)O", 4]
]}

----------
Catalogue of MIC readings, one per entry.
Tested on: Staphylococcus aureus
Assay: Antibacterial activity against […] Staphylococcus aureus ATCC 29213 after 24 hrs by broth microdilution method
Type: functional
Settings: ATCC 29213, 24 h
OBSERVABLE: MIC (µg/mL)

{"columns": ["COMPOUND", "OBSERVABLE", "VALUE_REPORTED"],
 "data": [
  ["O=C(O)c1cn(C2CC2)c2cc(N3CCNCC3)c(F)cc2c1=O [CIPROFLOXACIN]", "MIC", 0.25],
  ["CC[n+]1c(-c2ccccc2)c2cc(N)ccc2c2ccc(N)cc21.[Br-] [HOMIDIUM BROMIDE]", "MIC", 4],
  ["COc1c(N2C[C@@H]3CCCN[C@@H]3C2)c(F)cc2c(=O)c(C(=O)O)cn(C3CC3)c12 [MOXIFLOXACIN]", "MIC", 0.06],
  ["CO/N=C1\\CN(c2nc3c(cc2F)c(=O)c(C(=O)O)cn3C2CC2)CC1CN (centres undefined) [GEMIFLOXACIN]", "MIC", 0.03]
]}

----------
Experiment: Plasma half life in mouse at 20 mg/kg, sc
Assay type: ADME, organism-based
Set-up: dose 20 mg/kg, route subcutaneous

{"columns": ["MOLECULE", "half-life [h]"],
 "data": [
  ["CC(=O)NCC1CN(c2ccc(N3CCOCC3)c(F)c2)C(=O)O1 (single isomer, unassigned)", 1.17]
]}

----------
Catalogue of AUC(0-t) at 24 h readings, one per entry.
Experiment: AUC (0-24 hrs) in mouse at 50 mg/kg, sc
Assay type: ADME, organism-based
Set-up: time < 24 hr, dose 50 mg/kg, route subcutaneous
Details: plasma

{"columns": ["COMPOUND", "VALUE_UNITS", "AUC(0-t) at 24 h"],
 "data": [
  ["O=C(O)c1cn(C2CC2)c2cc(N3CCNCC3)c(F)cc2c1=O", "ng·h/mL", 14400],
  ["CC(=O)NCC1CN(c2ccc(N3CCOCC3)c(F)c2)C(=O)O1 (single isomer, unassigned)", "ng·h/mL", 112000]
]}

----------
Catalogue of Tmax readings, one per entry.
Assay: Tmax in mouse at 50 mg/kg, sc
Assay type: ADME, organism-based
Set-up: dose 50 mg/kg, route subcutaneous
Settings: in vivo
OBSERVABLE: Tmax

{"columns": ["COMPOUND", "OBSERVABLE", "VALUE_REPORTED"],
 "data": [
  ["CC(=O)NCC1CN(c2ccc(N3CCOCC3)c(F)c2)C(=O)O1 (single isomer, unassigned) [LINEZOLID]", "Tmax", "60 min"],
  ["O=C(O)c1cn(C2CC2)c2cc(N3CCNCC3)c(F)cc2c1=O [CIPROFLOXACIN]", "Tmax", "30 min"]
]}

----------
Tested on: Staphylococcus aureus
Assay: Antibacterial activity against methicillin-susceptible Staphylococcus aureus after 24 hrs by broth microdilution method
Format: functional

{"columns": ["RECORD_SMILES", "VALUE_UNITS", "MIC50"],
 "data": [
  ["C[C@H]1COc2c(N3CCN(C)CC3)c(F)cc3c(=O)c(C(=O)O)cn1c23.C[C@H]1COc2c(N3CCN(C)CC3)c(F)cc3c(=O)c(C(=O)O)cn1c23.O", "µg/mL", 0.25],
  ["CC[C@H]1OC(=O)[C@H](C)[C@@H](O[C@H]2C[C@@](C)(OC)[C@@H](O)[C@H](C)O2)[C@H](C)[C@@H](O[C@@H]2O[C@H](C)C[C@H](N(C)C)[C@H]2O)[C@](C)(O)C[C@@H](C)CN(C)[C@H](C)[C@@H](O)[C@]1(C)O", "µg/mL", 1]
]}

----------
Test system: Neisseria meningitidis
Experiment: Antibacterial activity against Neisseria meningitidis after 24 hrs by broth microdilution method
Type: functional
OBSERVABLE: MIC50

{"columns": ["RECORD_SMILES", "TARGET", "VALUE_REPORTED"],
 "data": [
  ["CN(C)c1ccc(O)c2c1C[C@H]1C[C@H]3[C@H](N(C)C)C(O)=C(C(N)=O)C(=O)[C@@]3(O)C(O)=C1C2=O", "Neisseria meningitidis", "0.12 µg/mL"],
  ["C[C@H]1COc2c(N3CCN(C)CC3)c(F)cc3c(=O)c(C(=O)O)cn1c23.C[C@H]1COc2c(N3CCN(C)CC3)c(F)cc3c(=O)c(C(=O)O)cn1c23.O", "Neisseria meningitidis", "≤ 0.12 µg/mL"],
  ["C[C@@H](O)[C@H]1C(=O)N2C(C(=O)O)=C(S[C@@H]3CN[C@H](C(=O)N(C)C)C3)[C@H](C)[C@H]12", "Neisseria meningitidis", "0.008 µg/mL"],
  ["CC[C@H]1OC(=O)[C@H](C)[C@@H](O[C@H]2C[C@@](C)(OC)[C@@H](O)[C@H](C)O2)[C@H](C)[C@@H](O[C@@H]2O[C@H](C)C[C@H](N(C)C)[C@H]2O)[C@](C)(O)C[C@@H](C)CN(C)[C@H](C)[C@@H](O)[C@]1(C)O", "Neisseria meningitidis", "0.5 µg/mL"]
]}
